molecular target: NMDA receptor (3H-MK801 binding, high and low affinity binding sites); experiment: 3H-MK801 (Dizocilpine) binding in vitro, rat whole brain membranes; conditions: high affinity binding site; 5 nM 3H-MK-801, 2 hours, room temperature; read-out: 3H-MK801 IC50 high
pIC50: −log10 of the molar value.
# pIC50 per record follows

{"compound": "OC(COc1ccc2c(c1)CCC2)CN1CC=C(c2ccc(F)cc2)CC1 (centres unmarked)", "pIC50": 5.71}
{"compound": "NC(=O)Nc1ccc(OCC(O)CN2CC=C(c3ccc(F)cc3)CC2)cc1 (centres unmarked)", "pIC50": 7.70}
{"compound": "OC(COc1ccccc1)CN1CC=C(c2ccccc2)CC1 (centres unmarked)", "pIC50": 5.76}
{"compound": "CC(=O)Nc1ccc(OCCCN2CC=C(c3ccc(Cl)cc3)CC2)cc1", "pIC50": 6.70}
{"compound": "Nc1ccc(OCCCN2CC=C(c3ccc(F)cc3)CC2)cc1", "pIC50": 6.11}
